Experiment: Metabolic stability with human hepatocytes
Type: in vitro ADME
Details: human hepatocyte suspension, 1 μM, scaled with well stirred model
READOUT_NAME: CL (predicted human hepatic in vivo blood clearance) (mL/min/kg)

Completed entries (count: 4):
[
  {
    "COMPOUND": "CS(=O)(=O)CCNC(=O)N1C(=O)N(c2cccc(C(F)(F)F)c2)C2=C(C(=O)CCC2)C1c1ccc(C#N)cc1 (stereo not drawn) [Example 39.19]",
    "VALUE_UNIT": "mL/min/kg",
    "MEASURED_VALUE": 0
  },
  {
    "COMPOUND": "CS(=O)(=O)c1cc(C#N)ccc1[C@@H]1C2=C(CCCC2=O)N(c2cccc(C(F)(F)F)c2)C(=O)N1S(C)(=O)=O [Example 68]",
    "VALUE_UNIT": "mL/min/kg",
    "MEASURED_VALUE": 0
  },
  {
    "COMPOUND": "CC(C)NC(=O)N1C(=O)N(c2cccc(C(F)(F)F)c2)C2=C(C(=O)CCC2)[C@H]1c1ccc(C#N)cc1S(C)(=O)=O [Example 75.3]",
    "VALUE_UNIT": "mL/min/kg",
    "MEASURED_VALUE": 0
  },
  {
    "COMPOUND": "CC(C)(O)CNC(=O)N1C(=O)N(c2cccc(C(F)(F)F)c2)C2=C(C(=O)CCC2)C1c1ccc(C#N)cc1 (stereo not drawn) [Example 70.9]",
    "VALUE_UNIT": "mL/min/kg",
    "MEASURED_VALUE": 0
  }
]

1 = CS(=O)(=O)c1cc(C#N)ccc1[C@H]1NC(=O)N(c2cccc(C(F)F)c2)C2=C1C(=O)CCC2 (single isomer, unassigned) [Example 19A]
2 = CN1C(=O)N(c2cccc(C(F)(F)F)c2)C2=C(C(=O)CCC2)[C@H]1c1ccc(C#N)cc1S(C)(=O)=O [Example 48]
Inquiry: Which gives the smaller CL (predicted human hepatic in vivo blood clearance) number: 1 or 2 ? Output the label that corresponds to your choice.
Reply text: 1
(1: 0 mL/min/kg, 2: 3 mL/min/kg)

----------
Biological target: neutrophil elastase (Homo sapiens, UniProt P08246)
Sequence (P08246 30-247 limits assumed): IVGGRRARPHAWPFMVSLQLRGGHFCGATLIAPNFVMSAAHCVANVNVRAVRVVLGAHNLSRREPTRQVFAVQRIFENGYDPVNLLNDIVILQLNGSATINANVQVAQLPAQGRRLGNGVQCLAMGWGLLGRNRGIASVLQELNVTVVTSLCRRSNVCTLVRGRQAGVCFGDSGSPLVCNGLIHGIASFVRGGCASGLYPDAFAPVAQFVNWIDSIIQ
Test: Human Neutrophil Elastase Assay
Settings: substrate MeOSuc-Ala-Ala-Pro-Val-AMC, pH 7.5, room temperature
READOUT_NAME: IC50 (nM)

[
  {
    "MOLECULE": "CN(CCN1CCCC1=O)C(=O)CN1C(=O)N(c2cccc(C(F)(F)F)c2)C2=C(C(=O)CCC2)C1c1ccc(C#N)cc1 (stereo not shown)",
    "TGT": "neutrophil elastase (Homo sapiens, UniProt P08246)",
    "VALUE_UNIT": "nM",
    "IC50": 4.2
  }
]

I = Cn1ncc2c1CN(C(=O)CN1C(=O)N(c3cccc(C(F)(F)F)c3)C3=C(C(=O)CCC3)C1c1ccc(C#N)cc1)C2 (stereo not shown)
II = Cn1cc(CNC(=O)CN2C(=O)N(c3cccc(C(F)(F)F)c3)C3=C(C(=O)CCC3)C2c2ccc(C#N)cc2)cn1 (stereo not shown)
III = CN(C)C(=O)CN1C(=O)N(c2cccc(C(F)(F)F)c2)C2=C(C(=O)CCC2)C1c1ccc(C#N)cc1 (stereo not shown)
IV = N#Cc1ccc(C2NC(=O)N(c3cccc(C(F)(F)F)c3)C3=C2C(=O)CC(C(F)(F)F)C3)cc1 (stereo not shown)
Inquiry: Put these in order: smallest IC50 first, largest last. Give the order by naming the labels one after another as requested.
Reply text: I, III, II, IV
(I: 1.7 nM, III: 3.1 nM, II: 7.8 nM, IV: 65.8 nM)

Recorded values, source patent US9115093B2.
